Sourced from patent US20120245137A1

target: UniProtKB Q13936; assay: FLIPR data, CAv1.2 channel blocking (Table 6); assay type: cell-based; details: ratio closed/inactivated IC50
Sequence (Q13936 whole entry): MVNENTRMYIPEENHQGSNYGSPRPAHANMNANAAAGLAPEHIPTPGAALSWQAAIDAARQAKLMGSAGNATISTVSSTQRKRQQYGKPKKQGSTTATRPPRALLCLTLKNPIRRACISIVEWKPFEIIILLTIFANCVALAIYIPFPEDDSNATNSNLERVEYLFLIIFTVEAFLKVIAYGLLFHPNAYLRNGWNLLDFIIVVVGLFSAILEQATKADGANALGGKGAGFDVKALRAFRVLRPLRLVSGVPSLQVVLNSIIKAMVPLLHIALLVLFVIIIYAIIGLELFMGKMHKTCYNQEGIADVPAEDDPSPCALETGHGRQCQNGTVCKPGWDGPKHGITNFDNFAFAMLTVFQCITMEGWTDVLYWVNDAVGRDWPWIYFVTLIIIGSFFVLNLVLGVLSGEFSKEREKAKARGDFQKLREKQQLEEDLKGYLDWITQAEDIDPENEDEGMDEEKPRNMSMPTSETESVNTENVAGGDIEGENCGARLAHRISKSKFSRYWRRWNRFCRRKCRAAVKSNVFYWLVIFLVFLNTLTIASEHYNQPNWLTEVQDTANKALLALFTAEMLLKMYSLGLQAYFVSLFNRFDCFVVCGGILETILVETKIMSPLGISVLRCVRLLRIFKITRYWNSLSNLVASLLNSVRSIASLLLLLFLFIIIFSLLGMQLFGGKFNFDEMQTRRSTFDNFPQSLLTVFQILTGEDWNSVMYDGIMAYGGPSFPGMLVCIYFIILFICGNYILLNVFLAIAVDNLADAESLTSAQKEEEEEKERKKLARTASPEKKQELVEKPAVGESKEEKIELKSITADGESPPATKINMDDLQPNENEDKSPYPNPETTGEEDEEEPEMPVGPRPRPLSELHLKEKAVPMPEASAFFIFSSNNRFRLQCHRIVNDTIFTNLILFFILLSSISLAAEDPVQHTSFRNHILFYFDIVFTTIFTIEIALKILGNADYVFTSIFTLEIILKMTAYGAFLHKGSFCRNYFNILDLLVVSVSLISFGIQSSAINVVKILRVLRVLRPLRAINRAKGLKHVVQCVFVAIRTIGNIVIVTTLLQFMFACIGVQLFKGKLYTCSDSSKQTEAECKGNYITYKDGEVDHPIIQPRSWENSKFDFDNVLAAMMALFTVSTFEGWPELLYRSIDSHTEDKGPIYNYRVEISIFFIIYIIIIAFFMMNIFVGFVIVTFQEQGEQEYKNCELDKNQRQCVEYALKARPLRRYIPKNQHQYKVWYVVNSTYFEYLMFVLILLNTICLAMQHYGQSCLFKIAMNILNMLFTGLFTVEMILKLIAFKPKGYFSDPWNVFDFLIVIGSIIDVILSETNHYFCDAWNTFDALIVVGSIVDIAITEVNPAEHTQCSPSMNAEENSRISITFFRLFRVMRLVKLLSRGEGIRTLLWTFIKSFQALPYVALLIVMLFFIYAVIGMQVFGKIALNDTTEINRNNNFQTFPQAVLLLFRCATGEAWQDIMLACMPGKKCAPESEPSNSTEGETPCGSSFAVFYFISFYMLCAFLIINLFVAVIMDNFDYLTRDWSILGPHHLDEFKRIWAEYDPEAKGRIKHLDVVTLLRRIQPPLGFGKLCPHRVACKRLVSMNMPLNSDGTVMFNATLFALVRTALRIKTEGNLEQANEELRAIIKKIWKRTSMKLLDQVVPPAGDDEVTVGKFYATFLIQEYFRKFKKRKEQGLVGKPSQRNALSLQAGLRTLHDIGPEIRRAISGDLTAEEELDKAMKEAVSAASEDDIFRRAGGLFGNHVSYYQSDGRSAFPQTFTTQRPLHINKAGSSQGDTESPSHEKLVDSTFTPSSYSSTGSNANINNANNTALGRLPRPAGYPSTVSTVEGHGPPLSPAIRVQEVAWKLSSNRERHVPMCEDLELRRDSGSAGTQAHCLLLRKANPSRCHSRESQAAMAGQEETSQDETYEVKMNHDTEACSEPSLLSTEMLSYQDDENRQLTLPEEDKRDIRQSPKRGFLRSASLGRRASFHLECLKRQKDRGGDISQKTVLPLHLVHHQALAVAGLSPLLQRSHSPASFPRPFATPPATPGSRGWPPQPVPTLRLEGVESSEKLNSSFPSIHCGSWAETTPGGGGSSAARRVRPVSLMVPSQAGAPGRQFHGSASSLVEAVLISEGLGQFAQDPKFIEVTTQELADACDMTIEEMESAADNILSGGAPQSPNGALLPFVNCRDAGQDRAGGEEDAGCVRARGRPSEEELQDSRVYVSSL
Sequence (P54289 25-1103 partner): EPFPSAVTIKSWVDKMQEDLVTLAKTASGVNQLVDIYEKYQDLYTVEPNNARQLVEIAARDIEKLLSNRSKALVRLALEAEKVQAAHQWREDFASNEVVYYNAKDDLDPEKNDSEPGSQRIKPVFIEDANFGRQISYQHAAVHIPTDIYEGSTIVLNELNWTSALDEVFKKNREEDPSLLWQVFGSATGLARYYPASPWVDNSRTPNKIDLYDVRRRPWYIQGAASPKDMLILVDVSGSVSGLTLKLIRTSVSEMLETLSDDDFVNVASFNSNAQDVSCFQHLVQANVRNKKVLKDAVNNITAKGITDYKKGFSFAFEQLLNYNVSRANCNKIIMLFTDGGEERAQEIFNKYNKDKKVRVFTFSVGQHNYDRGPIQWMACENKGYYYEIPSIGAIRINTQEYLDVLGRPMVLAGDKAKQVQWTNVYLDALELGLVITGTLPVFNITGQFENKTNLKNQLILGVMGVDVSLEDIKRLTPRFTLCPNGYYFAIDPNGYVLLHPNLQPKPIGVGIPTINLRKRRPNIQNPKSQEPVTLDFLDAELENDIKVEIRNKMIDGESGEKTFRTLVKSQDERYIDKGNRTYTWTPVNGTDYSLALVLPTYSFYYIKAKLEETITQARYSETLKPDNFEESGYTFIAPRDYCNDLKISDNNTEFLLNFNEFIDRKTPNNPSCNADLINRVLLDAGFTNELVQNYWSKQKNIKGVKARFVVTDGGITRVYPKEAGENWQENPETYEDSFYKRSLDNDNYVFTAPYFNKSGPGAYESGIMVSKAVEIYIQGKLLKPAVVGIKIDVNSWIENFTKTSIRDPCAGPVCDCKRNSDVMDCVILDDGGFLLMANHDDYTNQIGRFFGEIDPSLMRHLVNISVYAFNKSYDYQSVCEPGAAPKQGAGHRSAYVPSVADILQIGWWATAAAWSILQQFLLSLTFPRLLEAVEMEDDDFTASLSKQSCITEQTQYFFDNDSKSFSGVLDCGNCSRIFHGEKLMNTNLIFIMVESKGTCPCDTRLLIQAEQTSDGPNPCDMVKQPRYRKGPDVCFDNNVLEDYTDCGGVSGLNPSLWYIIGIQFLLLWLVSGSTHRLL
Sequence (Q08289 whole entry partner): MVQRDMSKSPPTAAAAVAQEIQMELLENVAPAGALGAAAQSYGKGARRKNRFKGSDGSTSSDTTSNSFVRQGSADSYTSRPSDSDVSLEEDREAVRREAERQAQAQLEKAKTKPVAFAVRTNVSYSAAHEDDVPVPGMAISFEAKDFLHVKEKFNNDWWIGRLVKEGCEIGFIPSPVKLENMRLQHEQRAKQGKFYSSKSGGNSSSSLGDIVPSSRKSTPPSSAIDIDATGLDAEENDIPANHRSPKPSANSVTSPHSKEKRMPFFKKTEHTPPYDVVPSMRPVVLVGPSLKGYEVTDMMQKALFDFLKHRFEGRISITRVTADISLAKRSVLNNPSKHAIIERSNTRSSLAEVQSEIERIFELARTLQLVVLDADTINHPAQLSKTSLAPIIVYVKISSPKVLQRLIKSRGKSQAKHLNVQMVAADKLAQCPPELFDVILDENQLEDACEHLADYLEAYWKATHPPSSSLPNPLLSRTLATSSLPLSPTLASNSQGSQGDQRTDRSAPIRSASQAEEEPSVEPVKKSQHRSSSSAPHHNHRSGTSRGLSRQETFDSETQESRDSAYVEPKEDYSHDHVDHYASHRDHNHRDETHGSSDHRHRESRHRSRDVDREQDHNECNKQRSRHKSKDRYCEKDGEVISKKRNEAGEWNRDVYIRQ
measure_name: CAv1.2 IC50 Ratio closed/inact.
Number only, no unit.

Before answering, review these 4 worked examples.
Look up CAv1.2 IC50 Ratio closed/inact. for this molecule: CC(C)([C@H]1C[C@@H](NC(=O)c2ccc(F)c(Cl)c2)C1)S(=O)(=O)c1cccc(OC(F)(F)F)c1 [Compound 641]
6

Moving on to CC(C)([C@H]1C[C@@H](NS(=O)(=O)c2ccc(C(F)(F)F)cc2)C1)S(=O)(=O)c1cc(F)cc(C(F)(F)F)c1 [Compound 598]
3.3

And for CC(C)(C1CC(CNC(=O)c2ccc(Cl)c(OC(F)(F)F)c2)C1)S(=O)(=O)c1cccc(C(F)(F)F)c1 (centres unmarked) [Compound 621] ?
14.1

Moving on to CC(C)([C@H]1C[C@@H](NS(=O)(=O)c2ccc(C(F)(F)F)cc2Cl)C1)S(=O)(=O)c1cc(F)cc(C(F)(F)F)c1 [Compound 622]
4.6

Next:
For CC(C)([C@H]1C[C@H](NS(=O)(=O)c2ccc(C(F)(F)F)cc2Cl)C1)S(=O)(=O)c1cccc(C(F)(F)F)c1 [Compound 666] , what is its reported CAv1.2 IC50 Ratio closed/inact.?
4.4

Another molecule to look at: CC(C)([C@H]1C[C@@H](CNc2ccnc(C(F)(F)F)n2)C1)S(=O)(=O)c1cccc(C(F)(F)F)c1 [Compound 691]
2.2

Queued: CC(C)([C@H]1C[C@H](Nc2ccnc(C(F)(F)F)n2)C1)S(=O)(=O)c1cc(F)cc(C(F)(F)F)c1 [Compound 649]
3.5

Would you kindly repeat that for CC(C)([C@H]1C[C@@H](NS(=O)(=O)c2ccc(F)c(Cl)c2)C1)S(=O)(=O)c1cc(F)cc(C(F)(F)F)c1 [Compound 599] ?
2.9

Param item: O=C(NC[C@H]1C[C@H](S(=O)(=O)c2cccc(OC(F)(F)F)c2)C1)c1ccc(OCC(F)(F)F)nc1 [Compound 698]
2.3

Also CC(C)(C1CC(CNC(=O)c2ccc(C(F)(F)F)cc2S(C)(=O)=O)C1)S(=O)(=O)c1cccc(C(F)(F)F)c1 (centres unmarked) [Compound 612] , if possible.
2.4

Repeat with CC(C)(C[C@H]1C[C@@H](NC(=O)c2ccc(C(F)(F)F)cn2)C1)S(=O)(=O)c1cccc(C(F)(F)F)c1 [Compound 735]
1.7

Try the molecule CC(C)(C[C@H]1C[C@H](NC(=O)c2ccc(C(F)(F)F)cn2)C1)S(=O)(=O)c1cccc(C(F)(F)F)c1 [Compound 722]
3.1

Please do the same for CC(C)([C@H]1C[C@H](NS(=O)(=O)c2ccc(C(F)(F)F)cc2)C1)S(=O)(=O)c1cccc(C(F)(F)F)c1 [Compound 663] as well.
3.4

Next entry: CC(C)([C@H]1C[C@H](NS(=O)(=O)c2ccc(F)c(C(F)(F)F)c2)C1)S(=O)(=O)c1cccc(C(F)(F)F)c1 [Compound 667]
3

Please answer likewise for CC(C)([C@H]1C[C@H](NC(=O)c2ccc(OCC(F)(F)F)nc2)C1)S(=O)(=O)c1cccc(C(F)(F)F)c1 [Compound 674]
4.4

Okay, and O=C(NC[C@H]1C[C@H](S(=O)(=O)c2cccc(OC(F)(F)F)c2)C1)c1ccc(Cl)cn1 [Compound 693] ?
1.5

Same question for CC(C)([C@H]1C[C@@H](NC(=O)c2cc(C(F)(F)F)n[nH]2)C1)S(=O)(=O)c1cc(F)cc(C(F)(F)F)c1 [Compound 587] please.
2.1

Now give it for CC(C)(C1CC(CNC(=O)c2ccc(F)c(Cl)c2)C1)S(=O)(=O)c1cccc(C(F)(F)F)c1 (centres unmarked) [Compound 618] too.
13.6

Try this molecule next: CC(C)([C@H]1C[C@@H](NS(=O)(=O)c2ccc(F)c(C(F)(F)F)c2)C1)S(=O)(=O)c1cc(F)cc(C(F)(F)F)c1 [Compound 601]
3.1

Also, CC(C)(C[C@H]1C[C@H](NC(=O)c2ccc(C(F)(F)F)cc2)C1)S(=O)(=O)c1cccc(C(F)(F)F)c1 [Compound 719] please.
3.6
